Attribution: paper PMC4515243

assay: plasma pharmacokinetics in Japanese patients (HPLC-MS/MS); format: in vivo, human; conditions: human, plasma, oral, 135 mg, 135 mg QW (n = 3); Day 1; geometric mean (coefficient of variation); read-out: Cmax First dose
MEASUREMENT KIND: Cmax (nM)

{"columns": ["ITEM SMILES", "TEST RESULT"],
 "data": [
  ["NC1(c2ccc(-c3nc4ccn5c(=O)[nH]nc5c4cc3-c3ccccc3)cc2)CCC1", 234]
]}

* * *

assay: plasma pharmacokinetics in Japanese patients (HPLC-MS/MS); format: in vivo, human; settings: human, plasma, oral, 200 mg, 200 mg QW, Day 22; read-out: AUC0–48h

{"columns": ["ITEM SMILES", "UNIT ABBREVIATION", "AUC(0-t)"],
 "data": [
  ["NC1(c2ccc(-c3nc4ccn5c(=O)[nH]nc5c4cc3-c3ccccc3)cc2)CCC1", "µM·h", 37.6]
]}

* * *

assay: plasma pharmacokinetics in Japanese patients (HPLC-MS/MS); assay type: in vivo, human; settings: human, plasma, oral, 200 mg, 200 mg QW (n = 9); Day 22; geometric mean (coefficient of variation); read-out: Cmax Last dose

{"columns": ["COMPOUND", "Cmax"],
 "data": [
  ["NC1(c2ccc(-c3nc4ccn5c(=O)[nH]nc5c4cc3-c3ccccc3)cc2)CCC1 [MK-2206]", "571 nM"]
]}

* * *

Assay: plasma pharmacokinetics in Japanese patients (HPLC-MS/MS)
Format: in vivo, human
Conditions: human, plasma, oral, 135 mg, 135 mg QW (n = 3); Day 1; geometric mean (coefficient of variation); read-out: C48-h First dose
Experimental: Blood samples for the QOD dosing schedule were collected for PK analyses just before and 2, 4, 6, 10, 24, and 48 h after MK-2206 dosing on days 1 and 27 of Cycle 1. After the final dose of MK-2206 during Cycle 1, blood samples were drawn 96, 144, and 192 h postdose during the 1-week rest period. […] The plasma concentrations were analyzed using high-performance liquid chromatography with tandem mass spectroscopy (HPLC–MS/MS) at Merck Research Labs, West Point, PA. […]

{"columns": ["ITEM SMILES", "concentration at 48 h / nM"],
 "data": [
  ["NC1(c2ccc(-c3nc4ccn5c(=O)[nH]nc5c4cc3-c3ccccc3)cc2)CCC1", 83.2]
]}

* * *

experiment: plasma pharmacokinetics in Japanese patients (HPLC-MS/MS); format: in vivo, human; settings: human, plasma, oral, 200 mg, 200 mg QW (n = 9); Day 22; median (min–max); read-out: Tmax Last dose
MEASUREMENT KIND: Tmax (h)

{"columns": ["ITEM SMILES", "TEST RESULT"],
 "data": [
  ["NC1(c2ccc(-c3nc4ccn5c(=O)[nH]nc5c4cc3-c3ccccc3)cc2)CCC1", 5]
]}

* * *

experiment: plasma pharmacokinetics in Japanese patients (HPLC-MS/MS); type: in vivo, human; conditions: human, plasma, oral; 135 mg QW (n = 3); harmonic mean ± pseudo SD; read-out: Apparent terminal t½ (converted)
MEASUREMENT KIND: half-life (h)

{"columns": ["COMPOUND", "UNIT ABBREVIATION", "TEST RESULT"],
 "data": [
  ["NC1(c2ccc(-c3nc4ccn5c(=O)[nH]nc5c4cc3-c3ccccc3)cc2)CCC1 [MK-2206]", "h", 69.3]
]}

* * *

experiment: plasma pharmacokinetics in Japanese patients (HPLC-MS/MS); format: in vivo, human; conditions: human, plasma, oral; 60 mg QOD (n = 9); harmonic mean ± pseudo SD; read-out: Apparent terminal t½ (converted)

{"columns": ["COMPOUND", "half-life [h]"],
 "data": [
  ["NC1(c2ccc(-c3nc4ccn5c(=O)[nH]nc5c4cc3-c3ccccc3)cc2)CCC1 [MK-2206]", 71.8]
]}

* * *

assay: plasma pharmacokinetics in Japanese patients (HPLC-MS/MS); format: in vivo, human; details: human, plasma, oral, 200 mg, 200 mg QW (n = 9); Day 22; geometric mean (coefficient of variation); read-out: C48-h Last dose
MEASUREMENT KIND: concentration at 48 h (nM)

{"columns": ["COMPOUND", "MEASUREMENT KIND", "UNIT ABBREVIATION", "TEST RESULT"],
 "data": [
  ["NC1(c2ccc(-c3nc4ccn5c(=O)[nH]nc5c4cc3-c3ccccc3)cc2)CCC1 [MK-2206]", "concentration at 48 h", "nM", 302]
]}

* * *

Assay: plasma pharmacokinetics in Japanese patients (HPLC-MS/MS)
Assay type: in vivo, human
Details: human, plasma, oral, 60 mg, 60 mg QOD (n = 9); Day 1; AUC0–48h; geometric mean (coefficient of variation); read-out: AUCt First dose
Description: Blood samples for the QOD dosing schedule were collected for PK analyses just before and 2, 4, 6, 10, 24, and 48 h after MK-2206 dosing on days 1 and 27 of Cycle 1. After the final dose of MK-2206 during Cycle 1, blood samples were drawn 96, 144, and 192 h postdose during the 1-week rest period. […] The plasma concentrations were analyzed using high-performance liquid chromatography with tandem mass spectroscopy (HPLC–MS/MS) at Merck Research Labs, West Point, PA. […]
MEASUREMENT KIND: AUC(0-t) (µM·h)

{"columns": ["COMPOUND", "UNIT ABBREVIATION", "TEST RESULT"],
 "data": [
  ["NC1(c2ccc(-c3nc4ccn5c(=O)[nH]nc5c4cc3-c3ccccc3)cc2)CCC1 [MK-2206]", "µM·h", 2.72]
]}

* * *

test: plasma pharmacokinetics in Japanese patients (HPLC-MS/MS); assay type: in vivo, human; settings: human, plasma, oral, 60 mg, QOD dosing (45 or 60 mg), Japanese patients; read-out: median Tmax

{"columns": ["ITEM SMILES", "Tmax"],
 "data": [
  ["NC1(c2ccc(-c3nc4ccn5c(=O)[nH]nc5c4cc3-c3ccccc3)cc2)CCC1", "4 to 6 h"]
]}

* * *

Assay: plasma pharmacokinetics in Japanese patients (HPLC-MS/MS)
Assay type: in vivo, human
Details: human, plasma, oral, 45 mg, 45 mg QOD (n = 3); Day 27; geometric mean (coefficient of variation); read-out: C48-h Last dose
Method: Blood samples for the QOD dosing schedule were collected for PK analyses just before and 2, 4, 6, 10, 24, and 48 h after MK-2206 dosing on days 1 and 27 of Cycle 1. After the final dose of MK-2206 during Cycle 1, blood samples were drawn 96, 144, and 192 h postdose during the 1-week rest period. […] The plasma concentrations were analyzed using high-performance liquid chromatography with tandem mass spectroscopy (HPLC–MS/MS) at Merck Research Labs, West Point, PA. […]

{"columns": ["ITEM SMILES", "UNIT ABBREVIATION", "concentration at 48 h"],
 "data": [
  ["NC1(c2ccc(-c3nc4ccn5c(=O)[nH]nc5c4cc3-c3ccccc3)cc2)CCC1", "nM", 144]
]}

* * *

test: plasma pharmacokinetics in Japanese patients (HPLC-MS/MS); type: in vivo, human; conditions: human, plasma, oral, 135 mg, 135 mg QW (n = 3); Day 22; geometric mean (coefficient of variation); read-out: Cmax Last dose
MEASUREMENT KIND: Cmax (nM)

{"columns": ["COMPOUND", "MEASUREMENT KIND", "TEST RESULT"],
 "data": [
  ["NC1(c2ccc(-c3nc4ccn5c(=O)[nH]nc5c4cc3-c3ccccc3)cc2)CCC1 [MK-2206]", "Cmax", 244]
]}

* * *

test: plasma pharmacokinetics in Japanese patients (HPLC-MS/MS); type: in vivo, human; conditions: human, plasma, oral, 200 mg, QW dosing (135 and 200 mg), Japanese patients; read-out: median Tmax

{"columns": ["ITEM SMILES", "Tmax"],
 "data": [
  ["NC1(c2ccc(-c3nc4ccn5c(=O)[nH]nc5c4cc3-c3ccccc3)cc2)CCC1", "4 to 6 h"]
]}

* * *

assay: plasma pharmacokinetics in Japanese patients (HPLC-MS/MS); type: in vivo, human; conditions: human, plasma, oral, 60 mg, 60 mg QOD (n = 9); Day 1; geometric mean (coefficient of variation); read-out: C48-h First dose

{"columns": ["ITEM SMILES", "concentration at 48 h [nM]"],
 "data": [
  ["NC1(c2ccc(-c3nc4ccn5c(=O)[nH]nc5c4cc3-c3ccccc3)cc2)CCC1", 40.6]
]}

* * *

test: plasma pharmacokinetics in Japanese patients (HPLC-MS/MS); assay type: in vivo, human; conditions: human, plasma, oral, 135 mg, 135 mg QW, Day 22; read-out: AUC0–48h

{"columns": ["ITEM SMILES", "AUC(0-t), µM·h"],
 "data": [
  ["NC1(c2ccc(-c3nc4ccn5c(=O)[nH]nc5c4cc3-c3ccccc3)cc2)CCC1", 12.8]
]}
